Target: T1, cyno PD-1 (SPR analyte) (cynomolgus monkey)
T1 construct: Construct of the soluble analyte is not described; also called cynomolgus PD-1
Test: SPR, ProteOn XPR36, mAb captured by anti-human IgG Fc, cyno PD-1 as analyte, 25 C

# binder, readout units, kon
rows = [
    ("PD1B1088 (antibody, human IgG1, kappa, V domains shown, IgG1; also called PD1H405/PD1L651; V29F (VL) variant of PD1B878) VH: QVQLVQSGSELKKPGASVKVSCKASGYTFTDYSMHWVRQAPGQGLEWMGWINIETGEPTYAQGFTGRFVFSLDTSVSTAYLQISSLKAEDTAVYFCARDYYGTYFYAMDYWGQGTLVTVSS VL: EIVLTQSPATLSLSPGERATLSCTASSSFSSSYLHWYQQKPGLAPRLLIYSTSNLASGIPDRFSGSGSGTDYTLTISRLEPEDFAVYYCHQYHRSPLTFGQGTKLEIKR", "M⁻¹ s⁻¹", 66100),
    ("PD1B1095 (antibody, human IgG1, kappa, V domains shown, IgG1; also called PD1H587/PD1L652; E57W (VH), S30P (VL) variant of PD1B878) VH: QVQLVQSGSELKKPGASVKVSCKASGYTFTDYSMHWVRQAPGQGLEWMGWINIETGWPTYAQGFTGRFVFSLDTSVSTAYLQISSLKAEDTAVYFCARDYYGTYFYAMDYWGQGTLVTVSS VL: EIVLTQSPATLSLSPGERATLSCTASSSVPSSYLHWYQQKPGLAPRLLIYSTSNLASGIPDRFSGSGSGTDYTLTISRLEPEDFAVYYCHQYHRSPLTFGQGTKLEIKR", "M⁻¹ s⁻¹", 185000),
    ("PD1B1091 (antibody, human IgG1, kappa, V domains shown, IgG1; also called PD1H586/PD1L651; E57H (VH), V29F (VL) variant of PD1B878) VH: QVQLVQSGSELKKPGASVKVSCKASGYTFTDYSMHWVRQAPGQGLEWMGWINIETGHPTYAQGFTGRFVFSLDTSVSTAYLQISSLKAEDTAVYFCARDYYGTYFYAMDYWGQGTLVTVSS VL: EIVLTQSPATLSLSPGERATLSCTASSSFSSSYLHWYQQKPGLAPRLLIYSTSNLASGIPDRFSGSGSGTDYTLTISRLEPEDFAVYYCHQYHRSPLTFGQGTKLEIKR", "M⁻¹ s⁻¹", 99100),
]
